# Test System: T1, TFAM (no MTS) (Homo sapiens, UniProt Q00059 43-246)
# T1 sequence: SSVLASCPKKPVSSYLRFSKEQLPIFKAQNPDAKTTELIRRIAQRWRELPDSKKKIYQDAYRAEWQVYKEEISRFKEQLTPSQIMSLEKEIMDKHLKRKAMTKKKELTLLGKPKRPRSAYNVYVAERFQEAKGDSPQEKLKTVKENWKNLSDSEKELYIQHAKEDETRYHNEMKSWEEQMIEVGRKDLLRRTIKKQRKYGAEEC
# Assay Overview: fluorescence anisotropy; Hill n 2.15±0.24; FP: 25 mM HEPES, 10 mM Mg(OAc)2, 25 mM NaOAc, 75 mM KOAc, pH 7.5, 1 nM DNA, TFAM 0-15 nM diluted on ice (read temperature not stated); AFM oligos: on ice, 2 min
# Assay Setup: protein: recombinant; label: 5' 6-FAM on strand 1; blunt
Experimental Readout: Kd
Answer format: number, then unit.

Prompt: Fill blank: measured Kd of the binder TRNT_10 (dsDNA) DNA 1: CTTGTAGTATAAACTAATACACCAGTCTTGTAA DNA 2: TTACAAGACTGGTGTATTAGTTTATACTACAAG is ____.
Completion: 4.24 nM
